B1: TPR t1 (parent)
chain: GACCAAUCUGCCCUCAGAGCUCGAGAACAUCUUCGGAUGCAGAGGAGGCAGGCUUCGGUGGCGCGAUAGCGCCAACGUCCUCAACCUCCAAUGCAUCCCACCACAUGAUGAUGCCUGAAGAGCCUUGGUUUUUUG

variants of: B1; assay: polymerase ribozyme fitness, log enrichment relative to wild type (log ratio); higher = more active; in vitro selection for triplet polymerase activity
The reader will find reported polymerase ribozyme fitness (log ratio) values listed item by item below.
testReadout: polymerase ribozyme fitness (log ratio)

INSERT INTO measurements (variantdescriptor, testreadout, observedresult) VALUES
  ('C22G C72U U96C C114G C123U G127U', 'polymerase ribozyme fitness (log ratio)', -7.69),
  ('C11U A18C C73U G127A', 'polymerase ribozyme fitness (log ratio)', -5.36),
  ('G47U G57A U106G U132A', 'polymerase ribozyme fitness (log ratio)', -4.76),
  ('C53U C56A', 'polymerase ribozyme fitness (log ratio)', -0.566),
  ('U9G A37U C40U G45A C72U C104U', 'polymerase ribozyme fitness (log ratio)', -0.789),
  ('U14G G44A C72U C104U', 'polymerase ribozyme fitness (log ratio)', -2.42),
  ('A16U G71U', 'polymerase ribozyme fitness (log ratio)', -0.858),
  ('A18U C28U G51A U59G G117C', 'polymerase ribozyme fitness (log ratio)', -6.92),
  ('A16G G35U C49G C115A A119G A121U', 'polymerase ribozyme fitness (log ratio)', -4.09),
  ('G69U C79U C80U U116C', 'polymerase ribozyme fitness (log ratio)', -0.478),
  ('C40U G47U C53U', 'polymerase ribozyme fitness (log ratio)', -3.37),
  ('C3U U32C C101U G120C', 'polymerase ribozyme fitness (log ratio)', -0.584),
  ('A43C G77U C85G', 'polymerase ribozyme fitness (log ratio)', -4.12),
  ('C15U G52U', 'polymerase ribozyme fitness (log ratio)', -2.36),
  ('G19U G39U G93A U106C G120U', 'polymerase ribozyme fitness (log ratio)', -5.8),
  ('G69C C104A C123G', 'polymerase ribozyme fitness (log ratio)', -1.33),
  ('U33G U59G G110A', 'polymerase ribozyme fitness (log ratio)', -5.54),
  ('C4U G44A C73U A75U C94A', 'polymerase ribozyme fitness (log ratio)', -2.78),
  ('C86A A105C', 'polymerase ribozyme fitness (log ratio)', -2.57),
  ('C53G C56A', 'polymerase ribozyme fitness (log ratio)', -0.204),
  ('G60C C98G', 'polymerase ribozyme fitness (log ratio)', -6.74),
  ('C34A G65U C82G A111G U116G', 'polymerase ribozyme fitness (log ratio)', -6.99),
  ('C11U C98U', 'polymerase ribozyme fitness (log ratio)', -1.79),
  ('C72U C123G', 'polymerase ribozyme fitness (log ratio)', 0.829),
  ('G19U U96A C114A', 'polymerase ribozyme fitness (log ratio)', 0.905),
  ('A37C G61U C73U', 'polymerase ribozyme fitness (log ratio)', -1.35),
  ('G17A G47A A111U', 'polymerase ribozyme fitness (log ratio)', -5.85),
  ('C62U C73U', 'polymerase ribozyme fitness (log ratio)', -0.0195),
  ('G10A G52A G60A C79A C115A', 'polymerase ribozyme fitness (log ratio)', -2.07),
  ('G93C U131G', 'polymerase ribozyme fitness (log ratio)', -1.28),
  ('A29G C72G C80G A105C C123G', 'polymerase ribozyme fitness (log ratio)', -7.14),
  ('G39U C85U', 'polymerase ribozyme fitness (log ratio)', -0.997),
  ('A6U C49A C53A C79A C85U A111C', 'polymerase ribozyme fitness (log ratio)', -3.36),
  ('C11U G71U C123A', 'polymerase ribozyme fitness (log ratio)', 1.29),
  ('C72G C104A U116A', 'polymerase ribozyme fitness (log ratio)', -5.17),
  ('C11U U87G G113U', 'polymerase ribozyme fitness (log ratio)', -4.06),
  ('A46G G110U U116A', 'polymerase ribozyme fitness (log ratio)', -4.29),
  ('G39U U109G', 'polymerase ribozyme fitness (log ratio)', -5.73),
  ('G48A G93A U96C C99U', 'polymerase ribozyme fitness (log ratio)', -4.9),
  ('A29U G120U', 'polymerase ribozyme fitness (log ratio)', -0.652),
  ('A105C C114U G120C', 'polymerase ribozyme fitness (log ratio)', -2.29),
  ('C3A C72U C94G', 'polymerase ribozyme fitness (log ratio)', -3.51),
  ('U32C G47U G48U C76U U112G', 'polymerase ribozyme fitness (log ratio)', -4.6),
  ('G57U G71A C104A U106C U125A U131C', 'polymerase ribozyme fitness (log ratio)', -3.71),
  ('C28G G71U', 'polymerase ribozyme fitness (log ratio)', -2.39),
  ('U131A', 'polymerase ribozyme fitness (log ratio)', -0.123),
  ('C73A C104A A108G U112A A118G G122U', 'polymerase ribozyme fitness (log ratio)', -5.56),
  ('C3A G44A A46U C53G C115U', 'polymerase ribozyme fitness (log ratio)', -6.56),
  ('A18G C53A C72U C85G', 'polymerase ribozyme fitness (log ratio)', -4.61),
  ('G52U G93A C114G', 'polymerase ribozyme fitness (log ratio)', -4.8),
  ('C88U G113C', 'polymerase ribozyme fitness (log ratio)', -2.8),
  ('A26G A50G C56G C82G', 'polymerase ribozyme fitness (log ratio)', -3.42),
  ('A90U A100C A119G', 'polymerase ribozyme fitness (log ratio)', -2.07),
  ('C114U A118G', 'polymerase ribozyme fitness (log ratio)', -2.12),
  ('U7A C11A C101U G122U', 'polymerase ribozyme fitness (log ratio)', 0.139),
  ('G48A C76U C85G C89A U96C', 'polymerase ribozyme fitness (log ratio)', -5.66),
  ('U32A C40U G63A A83G G120C', 'polymerase ribozyme fitness (log ratio)', -7.22),
  ('G39A C56A U130A U131C', 'polymerase ribozyme fitness (log ratio)', -1.5),
  ('A46C C56A C73A A91U C97U', 'polymerase ribozyme fitness (log ratio)', -4.49),
  ('A2G U54A G60C U106G', 'polymerase ribozyme fitness (log ratio)', -2.29),
  ('C49U A68G A84C U131A', 'polymerase ribozyme fitness (log ratio)', -4.91),
  ('C12A U54A C80G', 'polymerase ribozyme fitness (log ratio)', -4.17),
  ('A18G G39C C94A U112G C124G', 'polymerase ribozyme fitness (log ratio)', -5.87),
  ('C22U U87A', 'polymerase ribozyme fitness (log ratio)', -3.71),
  ('U14C C49U A50U U55A', 'polymerase ribozyme fitness (log ratio)', -6.51),
  ('G61C A100U A111G G113A', 'polymerase ribozyme fitness (log ratio)', -4.64),
  ('C8U G61A C99U', 'polymerase ribozyme fitness (log ratio)', -2.24),
  ('A2C C49A U87A C88A', 'polymerase ribozyme fitness (log ratio)', -3.11),
  ('C49G C82G A118U', 'polymerase ribozyme fitness (log ratio)', -0.627),
  ('G10U U59C A95U C102U', 'polymerase ribozyme fitness (log ratio)', -3.58),
  ('G44U A118U', 'polymerase ribozyme fitness (log ratio)', -0.733),
  ('C4A C114U C124A', 'polymerase ribozyme fitness (log ratio)', -2.3),
  ('U32C G69C C80U C101U C102U', 'polymerase ribozyme fitness (log ratio)', -5.78),
  ('C28G G60U', 'polymerase ribozyme fitness (log ratio)', -2.56),
  ('G10C G69U G107C G120U', 'polymerase ribozyme fitness (log ratio)', -2.44),
  ('C11G A18U G44A G69U', 'polymerase ribozyme fitness (log ratio)', 0.139),
  ('C40A A43U C82U', 'polymerase ribozyme fitness (log ratio)', -3.09),
  ('G42A C64G C114G G117C', 'polymerase ribozyme fitness (log ratio)', -7.17),
  ('U21C U55C G63U A105U', 'polymerase ribozyme fitness (log ratio)', -4.84),
  ('C20A A27U A95G U131A', 'polymerase ribozyme fitness (log ratio)', -3.17),
  ('C13A A24G A29G C94A', 'polymerase ribozyme fitness (log ratio)', -4.2),
  ('G71U U81C G93A G120A', 'polymerase ribozyme fitness (log ratio)', -0.964),
  ('A27G C89A', 'polymerase ribozyme fitness (log ratio)', -3.54),
  ('C34U G113A C115A U132A', 'polymerase ribozyme fitness (log ratio)', -6.07),
  ('U55A G93A A121U', 'polymerase ribozyme fitness (log ratio)', 1.57),
  ('A50U G60U G117U', 'polymerase ribozyme fitness (log ratio)', -4.36),
  ('C11G C123G', 'polymerase ribozyme fitness (log ratio)', 0.989),
  ('A37C G61U C104U U112C', 'polymerase ribozyme fitness (log ratio)', 1.04),
  ('A66G C72U C80U C123A', 'polymerase ribozyme fitness (log ratio)', -3.12),
  ('C8U U87A U112C G117U U130C', 'polymerase ribozyme fitness (log ratio)', -0.73),
  ('C49A A105C', 'polymerase ribozyme fitness (log ratio)', -2.48);
